- TARGET OF ASSAY: E. coli Topoisomerase IV (Escherichia coli)
- Construct: purchased Inspiralis (Norwich, UK)
- ASSAY EXPLANATION: E. coli topoisomerase IV decatenation gel assay
- Type: biochemical
- MEASUREMENT CONTEXT: replicate Assay 2; read-out: IC50 E. coli Topoisomerase IV decatenation, Assay 2
MEASUREMENT TYPE: IC50 (nM)
Record the value in nM, omitting the unit from your answer.

COc1cnc2ncc(=O)n([C@H]3CC[C@H](NCc4cc5c(=O)oc6ccc(F)cc6c5[nH]4)CC3)c2c1 [Compound 5] : 160
O=C1COc2ncc(F)cc2N1[C@H]1CC[C@H](NCc2cc3c(=O)oc4ccc(F)cc4c3[nH]2)CC1 [Compound 1] : 1420

Would you kindly look at the next entry?
Asked: Can you look up the measured IC50 of O=c1oc2ccc(F)cc2c2[nH]c(CN[C@H]3CC[C@H](n4c(=O)cnc5ncc(F)cc54)CC3)cc12 [Compound 4] for me?
Given back: 200

---

- Test system: A. baumannii APV00473
- ASSAY EXPLANATION: MIC, broth microdilution
- Format: cell-based
- MEASUREMENT CONTEXT: Acinetobacter baumannii; A. baumannii APV00473, ciprofloxacin-resistant
- Procedure: MICs were determined by the broth microdilution method (the agar dilution method was used only for N. gonorrhoeae) according to CLSI guidelines.
MEASUREMENT TYPE: MIC (µg/mL)
Answer format: numeric, µg/mL implied, no suffix.

Completed entries (count: 2):
COc1cnc2ncc(=O)n([C@H]3CC[C@H](NCc4cc5c(=O)oc6ccc(F)cc6c5[nH]4)CC3)c2c1 : 0.5
Cl.N#Cc1ccc2ccc(=O)n([C@H]3CC[C@H](NCc4cc5c(=O)oc6ccc(F)cc6c5[nH]4)CC3)c2c1 : 0.5

Let us examine a further case.
Asked: // MIC lookup, key: O=c1oc2ccc(F)cc2c2[nH]c(CN[C@H]3CC[C@H](n4c(=O)cnc5ncc(F)cc54)CC3)cc12
Given back: 0.12

---

- TARGET OF ASSAY: S. aureus DNA gyrase (Staphylococcus aureus)
- Construct: purchased Inspiralis (Norwich, UK)
- Sequence (P20831 whole entry): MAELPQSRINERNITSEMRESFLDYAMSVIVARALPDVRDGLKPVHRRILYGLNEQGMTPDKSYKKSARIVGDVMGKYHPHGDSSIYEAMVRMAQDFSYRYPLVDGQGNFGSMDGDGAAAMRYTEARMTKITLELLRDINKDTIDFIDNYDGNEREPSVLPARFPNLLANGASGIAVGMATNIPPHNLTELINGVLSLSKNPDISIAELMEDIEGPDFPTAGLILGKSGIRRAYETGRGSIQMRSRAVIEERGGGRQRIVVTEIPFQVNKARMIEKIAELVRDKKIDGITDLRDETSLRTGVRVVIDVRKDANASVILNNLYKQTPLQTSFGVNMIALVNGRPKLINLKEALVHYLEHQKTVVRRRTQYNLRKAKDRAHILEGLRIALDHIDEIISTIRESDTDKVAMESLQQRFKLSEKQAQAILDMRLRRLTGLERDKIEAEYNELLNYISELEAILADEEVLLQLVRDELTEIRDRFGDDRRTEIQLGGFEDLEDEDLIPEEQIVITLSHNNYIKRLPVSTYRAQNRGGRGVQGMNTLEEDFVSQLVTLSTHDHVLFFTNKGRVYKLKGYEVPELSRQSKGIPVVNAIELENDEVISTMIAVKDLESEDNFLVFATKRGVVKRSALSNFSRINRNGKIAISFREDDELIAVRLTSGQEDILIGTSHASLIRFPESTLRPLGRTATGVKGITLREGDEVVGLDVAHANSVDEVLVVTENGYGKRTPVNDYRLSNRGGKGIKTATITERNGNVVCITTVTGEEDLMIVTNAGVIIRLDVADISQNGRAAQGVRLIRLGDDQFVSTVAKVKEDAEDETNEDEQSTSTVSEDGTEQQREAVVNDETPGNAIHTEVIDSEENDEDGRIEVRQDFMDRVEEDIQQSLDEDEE
- Sequence (P0A0K8 whole entry partner): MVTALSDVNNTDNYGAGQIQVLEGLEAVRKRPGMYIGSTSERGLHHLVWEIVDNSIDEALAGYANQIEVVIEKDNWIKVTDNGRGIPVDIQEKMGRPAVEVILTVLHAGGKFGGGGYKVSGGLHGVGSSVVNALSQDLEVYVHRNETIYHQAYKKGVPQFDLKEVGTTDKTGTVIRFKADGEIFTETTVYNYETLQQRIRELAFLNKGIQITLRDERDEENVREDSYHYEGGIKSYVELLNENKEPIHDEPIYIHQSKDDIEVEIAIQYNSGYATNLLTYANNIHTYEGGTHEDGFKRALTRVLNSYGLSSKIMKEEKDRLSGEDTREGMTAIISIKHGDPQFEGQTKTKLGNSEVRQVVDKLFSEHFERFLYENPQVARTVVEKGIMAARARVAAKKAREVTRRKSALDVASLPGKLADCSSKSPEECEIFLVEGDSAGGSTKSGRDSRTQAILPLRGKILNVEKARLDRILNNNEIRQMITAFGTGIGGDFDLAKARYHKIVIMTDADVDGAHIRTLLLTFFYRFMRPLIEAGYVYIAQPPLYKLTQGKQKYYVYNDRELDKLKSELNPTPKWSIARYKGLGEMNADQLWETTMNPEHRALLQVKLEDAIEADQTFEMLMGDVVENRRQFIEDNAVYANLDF
- ASSAY EXPLANATION: S. aureus DNA gyrase supercoiling gel assay
- Format: biochemical
- MEASUREMENT CONTEXT: average of two replicate experiments; read-out: IC50 S. aureus Gyrase Supercoiling (average)
MEASUREMENT TYPE: IC50 (nM)
Reply numerically in nM, unit not repeated.

Previously resolved entries follow.
O=c1oc2ccc(F)cc2c2[nH]c(CN[C@H]3CC[C@H](n4c(=O)cnc5ncc(F)cc54)CC3)cc12 [Compound 4] : 1000
Cl.O=c1oc2ccc(F)cc2c2[nH]c(CN[C@H]3CC[C@H](n4c(=O)ccc5ccc(F)cc54)CC3)cc12 [Compound 6] : 310

We next turn to a different compound, shown below.
Asked: What measured IC50 goes with COc1cnc2ncc(=O)n([C@H]3CC[C@H](NCc4cc5c(=O)oc6ccc(F)cc6c5[nH]4)CC3)c2c1 [Compound 5] ?
Given back: 170

---

- TARGET OF ASSAY: Human Topoisomerase II (Homo sapiens, UniProt P11388)
- Construct: purchased Inspiralis (Norwich, UK)
- Sequence (P11388 whole entry): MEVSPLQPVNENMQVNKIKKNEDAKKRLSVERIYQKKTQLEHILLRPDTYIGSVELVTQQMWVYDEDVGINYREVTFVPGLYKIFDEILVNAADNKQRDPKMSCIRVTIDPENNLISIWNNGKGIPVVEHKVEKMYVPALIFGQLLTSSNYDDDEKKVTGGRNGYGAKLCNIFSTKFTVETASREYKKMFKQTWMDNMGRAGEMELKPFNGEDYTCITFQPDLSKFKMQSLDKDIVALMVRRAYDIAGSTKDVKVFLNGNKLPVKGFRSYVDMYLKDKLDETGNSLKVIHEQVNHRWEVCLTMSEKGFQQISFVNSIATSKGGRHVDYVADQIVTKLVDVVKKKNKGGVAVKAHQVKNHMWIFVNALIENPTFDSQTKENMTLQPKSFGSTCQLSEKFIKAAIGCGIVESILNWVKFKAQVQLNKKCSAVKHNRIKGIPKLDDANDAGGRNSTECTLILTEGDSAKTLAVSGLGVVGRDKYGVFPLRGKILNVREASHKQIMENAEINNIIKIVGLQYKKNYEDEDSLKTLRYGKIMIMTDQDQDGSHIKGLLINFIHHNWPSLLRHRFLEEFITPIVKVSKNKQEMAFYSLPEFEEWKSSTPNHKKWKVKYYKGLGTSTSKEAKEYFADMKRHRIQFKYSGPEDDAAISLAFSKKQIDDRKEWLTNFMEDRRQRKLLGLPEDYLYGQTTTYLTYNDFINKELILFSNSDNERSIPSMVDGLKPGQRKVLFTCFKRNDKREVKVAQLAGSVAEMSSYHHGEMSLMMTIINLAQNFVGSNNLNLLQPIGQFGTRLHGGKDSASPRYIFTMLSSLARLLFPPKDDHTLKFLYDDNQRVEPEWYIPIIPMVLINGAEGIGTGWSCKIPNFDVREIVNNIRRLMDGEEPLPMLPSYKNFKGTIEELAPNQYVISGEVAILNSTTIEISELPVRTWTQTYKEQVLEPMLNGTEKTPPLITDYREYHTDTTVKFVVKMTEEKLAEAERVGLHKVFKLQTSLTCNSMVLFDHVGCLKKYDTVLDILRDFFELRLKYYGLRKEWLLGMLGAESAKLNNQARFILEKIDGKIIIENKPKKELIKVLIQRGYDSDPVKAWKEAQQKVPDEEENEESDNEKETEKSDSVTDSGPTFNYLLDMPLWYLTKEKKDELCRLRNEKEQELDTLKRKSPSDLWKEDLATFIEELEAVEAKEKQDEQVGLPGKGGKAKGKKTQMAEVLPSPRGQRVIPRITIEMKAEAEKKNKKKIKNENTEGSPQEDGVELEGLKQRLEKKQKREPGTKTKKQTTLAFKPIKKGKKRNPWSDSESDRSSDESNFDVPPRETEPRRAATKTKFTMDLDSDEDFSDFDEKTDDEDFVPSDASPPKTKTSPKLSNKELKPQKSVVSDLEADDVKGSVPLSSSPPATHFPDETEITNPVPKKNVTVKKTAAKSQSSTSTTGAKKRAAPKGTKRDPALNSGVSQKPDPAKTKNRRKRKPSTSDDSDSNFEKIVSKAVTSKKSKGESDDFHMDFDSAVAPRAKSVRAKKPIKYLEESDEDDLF
- ASSAY EXPLANATION: Human topoisomerase II decatenation gel assay
- Type: biochemical
- MEASUREMENT CONTEXT: average of two replicate experiments; read-out: IC50 Human Topoisomerase II decatenation (average)
# maps each entry to its IC50

Cl.N#Cc1ccc2ccc(=O)n([C@H]3CC[C@H](NCc4cc5c(=O)oc6ccc(F)cc6c5[nH]4)CC3)c2c1 [Compound 2] : 6 µM
O=c1oc2ccc(F)cc2c2[nH]c(CN[C@H]3CC[C@H](n4c(=O)cnc5ncc(F)cc54)CC3)cc12 [Compound 4] : > 300 µM
Cl.O=c1oc2ccc(F)cc2c2[nH]c(CN[C@H]3CC[C@H](n4c(=O)ccc5ncc(F)cc54)CC3)cc12 [Compound 3] : 56 µM

Asked: // query IC50 value for entry O=C1COc2ncc(F)cc2N1[C@H]1CC[C@H](NCc2cc3c(=O)oc4ccc(F)cc4c3[nH]2)CC1 [Compound 1]
Given back: 98 µM

---

- TARGET OF ASSAY: Human Topoisomerase II (Homo sapiens, UniProt P11388)
- Construct: purchased Inspiralis (Norwich, UK)
- ASSAY EXPLANATION: Human topoisomerase II decatenation gel assay
- Assay type: biochemical
- MEASUREMENT CONTEXT: replicate Assay 1; read-out: IC50 Human Topoisomerase II (TopoII) decatenation, Assay 1
Measured pIC50 of individual entries
pIC50 is a log-scale quantity: -log10 of the concentration expressed in molar.

Past entries and their recorded results:
Cl.O=c1oc2ccc(F)cc2c2[nH]c(CN[C@H]3CC[C@H](n4c(=O)ccc5ncc(F)cc54)CC3)cc12 : 4.34
O=C1COc2ncc(F)cc2N1[C@H]1CC[C@H](NCc2cc3c(=O)oc4ccc(F)cc4c3[nH]2)CC1 : 4.02
Cl.O=c1oc2ccc(F)cc2c2[nH]c(CN[C@H]3CC[C@H](n4c(=O)ccc5ccc(F)cc54)CC3)cc12 : 4.89
Cl.N#Cc1ccc2ccc(=O)n([C@H]3CC[C@H](NCc4cc5c(=O)oc6ccc(F)cc6c5[nH]4)CC3)c2c1 : 5.22

Here is another molecule to look at.
Asked: Look at this molecule and give its reported pIC50. COc1cnc2ncc(=O)n([C@H]3CC[C@H](NCc4cc5c(=O)oc6ccc(F)cc6c5[nH]4)CC3)c2c1
Given back: 5.26

---

- Tested on: N. gonorrhoeae WHO N
- ASSAY EXPLANATION: MIC, agar dilution
- Format: cell-based
- MEASUREMENT CONTEXT: Neisseria gonorrhoeae, ciprofloxacin-resistant
MIC by entry:
Number only, in µg/mL; omit the unit.

Cl.O=c1oc2ccc(F)cc2c2[nH]c(CN[C@H]3CC[C@H](n4c(=O)ccc5ncc(F)cc54)CC3)cc12 : 0.016
Cl.N#Cc1ccc2ccc(=O)n([C@H]3CC[C@H](NCc4cc5c(=O)oc6ccc(F)cc6c5[nH]4)CC3)c2c1 : 0.03
COc1cnc2ncc(=O)n([C@H]3CC[C@H](NCc4cc5c(=O)oc6ccc(F)cc6c5[nH]4)CC3)c2c1 : 0.12
O=c1oc2ccc(F)cc2c2[nH]c(CN[C@H]3CC[C@H](n4c(=O)cnc5ncc(F)cc54)CC3)cc12 : 0.06

Asked: Any idea what MIC was measured for Cl.O=c1oc2ccc(F)cc2c2[nH]c(CN[C@H]3CC[C@H](n4c(=O)ccc5ccc(F)cc54)CC3)cc12 ?
Given back: 0.03

Asked: I am curious: what MIC value has been reported for O=C1COc2ncc(F)cc2N1[C@H]1CC[C@H](NCc2cc3c(=O)oc4ccc(F)cc4c3[nH]2)CC1 ?
Given back: 0.06

---

- TARGET OF ASSAY: E. coli Topoisomerase IV (Escherichia coli, UniProt P0AFI2)
- Construct: purchased Inspiralis (Norwich, UK)
- Sequence (P20083 whole entry): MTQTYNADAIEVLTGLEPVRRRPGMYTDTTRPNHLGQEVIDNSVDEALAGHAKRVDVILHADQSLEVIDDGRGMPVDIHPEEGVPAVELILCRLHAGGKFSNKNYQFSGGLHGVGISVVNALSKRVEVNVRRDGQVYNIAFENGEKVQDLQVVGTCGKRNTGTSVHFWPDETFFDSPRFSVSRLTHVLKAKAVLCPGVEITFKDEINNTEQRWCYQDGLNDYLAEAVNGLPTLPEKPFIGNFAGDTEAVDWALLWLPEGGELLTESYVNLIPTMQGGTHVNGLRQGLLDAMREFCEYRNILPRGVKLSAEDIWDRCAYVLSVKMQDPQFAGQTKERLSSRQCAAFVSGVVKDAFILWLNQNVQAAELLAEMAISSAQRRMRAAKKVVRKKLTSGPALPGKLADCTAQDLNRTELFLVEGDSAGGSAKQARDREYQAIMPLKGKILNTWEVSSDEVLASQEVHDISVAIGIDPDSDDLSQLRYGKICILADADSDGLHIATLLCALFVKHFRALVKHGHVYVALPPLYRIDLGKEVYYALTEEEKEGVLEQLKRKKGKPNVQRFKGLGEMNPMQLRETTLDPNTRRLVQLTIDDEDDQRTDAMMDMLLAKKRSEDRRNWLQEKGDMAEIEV
- Sequence (P0AFI2 whole entry): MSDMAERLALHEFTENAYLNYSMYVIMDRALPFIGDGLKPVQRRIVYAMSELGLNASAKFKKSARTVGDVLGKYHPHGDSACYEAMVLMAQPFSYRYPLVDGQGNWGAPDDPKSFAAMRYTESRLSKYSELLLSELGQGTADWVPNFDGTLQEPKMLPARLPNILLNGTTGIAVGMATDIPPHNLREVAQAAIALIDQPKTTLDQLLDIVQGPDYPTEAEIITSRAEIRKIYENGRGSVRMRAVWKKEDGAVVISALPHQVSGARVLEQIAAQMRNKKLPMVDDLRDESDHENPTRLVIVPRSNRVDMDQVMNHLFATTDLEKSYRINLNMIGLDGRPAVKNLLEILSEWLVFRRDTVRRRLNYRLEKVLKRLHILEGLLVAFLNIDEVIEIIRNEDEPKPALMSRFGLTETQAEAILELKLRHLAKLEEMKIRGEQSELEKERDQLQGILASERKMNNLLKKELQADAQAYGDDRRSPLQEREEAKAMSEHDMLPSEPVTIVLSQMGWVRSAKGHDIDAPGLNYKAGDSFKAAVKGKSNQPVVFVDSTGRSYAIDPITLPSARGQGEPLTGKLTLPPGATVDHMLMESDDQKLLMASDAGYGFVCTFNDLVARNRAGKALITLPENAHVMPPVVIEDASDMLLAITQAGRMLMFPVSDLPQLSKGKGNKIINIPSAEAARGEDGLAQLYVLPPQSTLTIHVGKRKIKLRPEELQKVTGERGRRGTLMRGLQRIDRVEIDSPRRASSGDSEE
- ASSAY EXPLANATION: E. coli topoisomerase IV decatenation gel assay
- Type: biochemical
- MEASUREMENT CONTEXT: replicate Assay 1; read-out: IC50 E. coli Topoisomerase IV decatenation, Assay 1
// reported IC50 per item
State the answer as a number, implicitly in nM.

Asked: IC50 for O=C1COc2ncc(F)cc2N1[C@H]1CC[C@H](NCc2cc3c(=O)oc4ccc(F)cc4c3[nH]2)CC1 ?
Given back: 1350

Asked: // lookup IC50 for O=c1oc2ccc(F)cc2c2[nH]c(CN[C@H]3CC[C@H](n4c(=O)cnc5ncc(F)cc54)CC3)cc12
Given back: 500

Asked: Would you kindly share the measured IC50 for COc1cnc2ncc(=O)n([C@H]3CC[C@H](NCc4cc5c(=O)oc6ccc(F)cc6c5[nH]4)CC3)c2c1 ?
Given back: 120

---

- Test system: E. faecium clinical isolates (n = 12) vanA (6)/vanB (6)
- ASSAY EXPLANATION: MIC, multidrug-resistant clinical isolates
- Assay type: cell-based
- MEASUREMENT CONTEXT: Enterococcus faecium
- Procedure: The bacterial reference strains used in this study were purchased from ATCC (American Type Culture Collection) via LGC Standards (Middlesex, UK). […] Clinical MDR isolates were provided by Aptuit, the IHMA Europa Sàrl repository (Epalinges, Switzerland) and the Statens Serum Institute (Copenhagen, Denmark). MICs were determined by the broth microdilution method (the agar dilution method was used only for N. gonorrhoeae) according to CLSI guidelines. […]
MEASUREMENT TYPE: MIC50 (µg/mL)
Numeric answer only, unit µg/mL assumed.

Cl.O=c1oc2ccc(F)cc2c2[nH]c(CN[C@H]3CC[C@H](n4c(=O)ccc5ccc(F)cc54)CC3)cc12 : 0.25

Okay, now this compound:
Asked: Looking for the measured MIC50 of CCCCCCCCCC(=O)N[C@@H](Cc1c[nH]c2ccccc12)C(=O)N[C@H](CC(N)=O)C(=O)N[C@@H](CC(=O)O)C(=O)N[C@@H]1C(=O)NCC(=O)N[C@@H](CCCN)C(=O)N[C@@H](CC(=O)O)C(=O)N[C@H](C)C(=O)N[C@@H](CC(=O)O)C(=O)NCC(=O)N[C@H](CO)C(=O)N[C@@H]([C@H](C)CC(=O)O)C(=O)N[C@@H](CC(=O)c2ccccc2N)C(=O)O[C@@H]1C [daptomycin, reference compound] , can you help?
Given back: 4
